All figures here come from ChEMBL document CHEMBL1126292.

- assayTarget: Beta-3 adrenergic receptor (Rattus norvegicus)
- assayComment: Stimulation of GDP binding against beta-3 adrenergic receptor in brown adipose tissue (BAT) mitochondria of rats after peroral administration (Dose necessary to produce 50% of the isoprenaline effect).
readoutKind: GDP ED50 (mg/kg)
The response must be a number in mg/kg with no trailing unit.

// below: answered compounds
>>> print(df.to_string())
                                   compound  measuredresult
0  COCCNC(=O)COc1ccc(OCCNCC(O)COc2ccccc2)cc1 (stereo unspecified)            0.24
1  COCCNC(=O)COc1ccc(OCCNC[C@@H](O)COc2ccccc2)cc1            69.9
2  O=C(COc1ccc(OCCNCC(O)COc2ccccc2)cc1)NCc1ccc(Cl)cc1 (stereo unspecified)            0.92

Prompt line: Return reported GDP ED50; argument: O=C(COc1ccc(OCCNCC(O)COc2ccccc2)cc1)N1CCCC1 (stereo unspecified)
Response line: 1.8

Prompt line: Return reported GDP ED50; argument: O=C(COc1ccc(OCCNCC(O)COc2ccccc2)cc1)NCCO (stereo unspecified)
Response line: 0.67

Prompt line: Return reported GDP ED50; argument: O=C(COc1ccc(OCCNCC(O)COc2ccccc2)cc1)NCc1ccccc1 (stereo unspecified)
Response line: 0.25

Prompt line: Return reported GDP ED50; argument: O=C(COc1ccc(OCCNCC(O)COc2ccccc2)cc1)NC1CCCC1 (stereo unspecified)
Response line: 3.1

Prompt line: Return reported GDP ED50; argument: CNC(=O)COc1ccc(OCCNC[C@H](O)COc2ccccc2)cc1
Response line: 0.57

Prompt line: Return reported GDP ED50; argument: COCCCNC(=O)COc1ccc(OCCNCC(O)COc2ccccc2)cc1 (stereo unspecified)
Response line: 0.83
